System: RAW-Dual (murine macrophage reporter line)
Assay: NF-kB reporter (SEAP) activity fold change vs agonist alone; higher = enhanced NF-kB activity
Conditions: modulator concentration 10 µM; agonist: CpG ODN 1826 0.5 ug/mL
NF-kB reporter values, listed per item
reportedProperty: NF-kB reporter

>  <molecule>
CCC(=O)NS(=O)(=O)c1ccc(-c2c(-c3ccccc3)noc2C)cc1

>  <numericValue>
0.921

$$$$
>  <molecule>
O=C(c1ccc(C(F)(F)F)nc1)N1CC(n2cc(C3CC3)nn2)C1

>  <numericValue>
0.889

$$$$
>  <molecule>
O=S(=O)(c1ccc(Cl)cc1)N1CCN(C2CC3CCC2C3)CC1 (stereo unspecified)

>  <numericValue>
0.926

$$$$
>  <molecule>
Clc1cccc(Nc2nc(-c3ccccn3)cs2)c1

>  <numericValue>
0.881

$$$$
>  <molecule>
CCCCNc1ccc(C(=O)OCCN(C)C)cc1.Cl

>  <numericValue>
0.906

$$$$
>  <molecule>
O=C(NCC(O)Cc1ccccc1)Nc1ccc(F)cc1 (stereo unspecified)

>  <numericValue>
0.893

$$$$
